biological target: Tyrosine-protein kinase Lyn (Homo sapiens) (UniProt P07948); conditions: at 1 µM;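 note: kinase tested as its LYN B splice variant, values given as mean percent inhibition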
Sequence (P07948 2-512 limits assumed): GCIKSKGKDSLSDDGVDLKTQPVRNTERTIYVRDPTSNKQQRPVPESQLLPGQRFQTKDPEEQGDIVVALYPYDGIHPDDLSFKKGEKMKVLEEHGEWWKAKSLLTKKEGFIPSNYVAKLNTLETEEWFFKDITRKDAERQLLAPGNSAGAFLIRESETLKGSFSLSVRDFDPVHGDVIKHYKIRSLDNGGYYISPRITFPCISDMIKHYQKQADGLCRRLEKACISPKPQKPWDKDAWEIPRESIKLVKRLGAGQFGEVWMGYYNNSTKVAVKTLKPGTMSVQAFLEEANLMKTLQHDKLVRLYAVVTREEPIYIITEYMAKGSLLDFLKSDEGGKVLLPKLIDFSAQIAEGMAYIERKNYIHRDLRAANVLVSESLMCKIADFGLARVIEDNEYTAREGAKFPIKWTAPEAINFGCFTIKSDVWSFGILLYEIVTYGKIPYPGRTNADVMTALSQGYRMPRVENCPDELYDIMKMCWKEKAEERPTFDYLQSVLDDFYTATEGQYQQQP
Description: GSK_PKIS: LYN B (splice variant) mean inhibition at 1 uM [Nanosyn]
Below, each of the molecules is paired with its reported inhibition value.

# INPUT SMILES, ENDPOINT UNIT, inhibition
rows = [
    ("CS(=O)(=O)CCNCc1coc(-c2ccc3ncnc(Nc4ccc(OCc5ccccc5)cc4)c3c2)c1", "%", 6.66),
    ("NC(=O)c1sc(-n2cnc3ccc(C(F)(F)F)cc32)cc1OCc1ccccc1Br", "%", 3.3),
    ("Nc1nc(-c2ccc(F)cc2)c(-c2ccc3ncccc3n2)s1", "%", 33),
    ("CCn1c(-c2nonc2N)nc2ccccc21", "%", 0.98),
    ("CN1CCC(n2cnc(-c3ccc(F)cc3)c2-c2ccnc(Nc3ccccc3)n2)CC1", "%", 13.9),
    ("CC(C)(CO)CNC(=O)c1ccc2c(c1)/C(=N/Nc1ccc(S(N)(=O)=O)cc1)C(=O)N2", "%", 8.71),
    ("COc1cccc(-c2c[nH]c3c(N/N=C/c4ccncc4)ncnc23)c1", "%", 81.8),
    ("Fc1ccc(-c2cc(-c3c[nH]nc3-c3ccccn3)ccn2)cc1", "%", 7.44),
    ("COc1ccc2c(-c3ccnc(Nc4cccc(OC(F)(F)F)c4)n3)cnn2n1", "%", 7.1),
    ("COc1cc(N2CCN(C(C)C)CC2)ccc1Nc1nc(Nc2ccc(F)cc2C(N)=O)c2cc[nH]c2n1", "%", 1.29),
    ("COC(=O)c1sc(-n2cnc3cc(OC)c(OC)cc32)cc1OCc1ccccc1C(F)(F)F", "%", 14.7),
    ("CN(C)CCOc1ccc(-c2nc(-c3ccncc3)c(-c3ccc4c(c3)CC/C4=N\\O)[nH]2)cc1", "%", 6.8),
    ("c1ccc(-c2nc3n(c2-c2ccc4c(c2)OCO4)CCC3)nc1", "%", 0.92),
    ("CCNC(=O)O[C@H]1CN[C@H](C#Cc2cc3ncnc(Nc4ccc(OCc5cccc(F)c5)c(Cl)c4)c3s2)C1", "%", 1.7),
    ("CC(C)COC(=O)c1ccc2c(c1)/C(=C/Nc1ccc(S(N)(=O)=O)cc1)C(=O)N2", "%", 20.4),
    ("CCn1c(-c2nonc2N)nc2c(C#CC(C)(C)O)nc(OC[C@H](N)c3ccccc3)cc21", "%", 4.2),
]

----------
Listing: inhibition of selected compounds
biological target: Protein kinase C eta type (Homo sapiens); conditions: at 1 µM;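 note: value is the mean inhibition, from GSK PKIS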
TEST READOUT: inhibition (%)

# INPUT SMILES, TEST READOUT, ENDPOINT UNIT, VAL
measured = [
    ("COc1cc(Nc2nccc(Nc3ccc4c(C)n[nH]c4c3)n2)cc(OC)c1OC", "inhibition", "%", -1.03),
    ("CCOc1ccc2c(-c3ccnc(Nc4cccc(C(F)(F)F)c4)n3)cnn2n1", "inhibition", "%", -0.29),
    ("Fc1ccc(-c2cc(-c3c[nH]nc3-c3ccccn3)ccn2)cc1", "inhibition", "%", 6.6),
    ("Cc1ccc(O)cc1Nc1ccnc2cc(-c3ccccn3)ccc12", "inhibition", "%", 3.71),
    ("COc1ccc2[nH]c3c4[nH]c5ccc(OC)cc5c4c4c(c3c2c1)C(=O)NC4=O", "inhibition", "%", 19.5),
    ("COc1ccc(CNC(=O)c2ccc(-c3cc(-c4nnc(C)o4)ccc3C)cc2)cc1", "inhibition", "%", 4.73),
    ("CCn1c(-c2nonc2N)nc2c(C#CC(C)(C)O)ncc(OC3CCNCC3)c21", "inhibition", "%", 99.9),
    ("c1ccc(COc2ccc(Nc3ncnc4ccc(-c5ccco5)cc34)cc2)cc1", "inhibition", "%", 0.45),
    ("COC(=O)c1sc(-n2cnc3cc(OC)c(OC)cc32)cc1OCc1ccccc1C(F)(F)F", "inhibition", "%", 0.99),
    ("O=C(Nc1n[nH]c2cc(-c3ccc(F)cc3)ccc12)C1CC1", "inhibition", "%", 6.59),
]

----------
Each entry below carries its recorded inhibition.
tested on: Tyrosine-protein kinase ABL1 (Homo sapiens), P00519 [H396P]; settings: at 0.1 µM
TEST READOUT: inhibition (%)

# INPUT SMILES, TEST READOUT, VAL
measured = [
    ("CCn1cc(-c2ccnc3[nH]ccc23)c(-c2cccc(NC(=O)Nc3ccc(OCc4ccccc4)cc3)c2)n1", "inhibition", 1.15),
    ("COc1cc(/C=N/Nc2ncnc3[nH]ncc23)ccc1O", "inhibition", 45.9),
    ("Fc1ccc(-c2nn3ccccc3c2-c2ccncc2)cc1", "inhibition", 1.59),
    ("CCn1c(-c2nonc2N)nc2c(C#CC(C)(C)O)ncc(OC3CCNCC3)c21", "inhibition", 2.05),
    ("CCOc1ccc2c(-c3ccnc(Nc4cccc(C(F)(F)F)c4)n3)cnn2n1", "inhibition", 2.46),
    ("COC(=O)Nc1nc2ccc(Oc3ccc(NC(=O)Nc4cccc(Cl)c4)cc3)cc2[nH]1", "inhibition", 15.3),
    ("CCN(CC)S(=O)(=O)c1ccc(OC)c(Nc2ncc(-c3ccccc3)o2)c1", "inhibition", 4.61),
    ("COc1cc(N2CCN(C(C)C)CC2)ccc1Nc1nc(Nc2ccc(F)cc2C(N)=O)c2cc[nH]c2n1", "inhibition", 1.72),
    ("COc1cc2c(cc1Nc1nc(Nc3ccsc3C(N)=O)c3cc[nH]c3n1)N(C(=O)CN(C)C)CCC2(C)C", "inhibition", 4.5),
    ("Fc1cccc(COc2ccc(Nc3ncnc4sc(-c5ccco5)cc34)cc2Cl)c1", "inhibition", 3.3),
    ("COc1ccc2c(-c3ccnc(Nc4cccc(OC(F)(F)F)c4)n3)cnn2n1", "inhibition", 3.04),
    ("NC(=O)c1sc(-n2cnc3ccc(C(F)(F)F)cc32)cc1OCc1ccccc1Br", "inhibition", 3.37),
    ("CNC(=O)c1cc(-c2ccc(F)cc2)cc(-c2ccc(S(=O)(=O)N3CCCC3)cc2)c1N", "inhibition", 3.29),
    ("CCc1nn2ncccc2c1-c1ccnc(NC2CC2)n1", "inhibition", 3.05),
    ("CCCN1CCC(c2ccc(Nc3nc(Nc4cc(F)ccc4C(N)=O)c4cc[nH]c4n3)c(OC)c2)CC1", "inhibition", 4.63),
    ("CN(C)CCOc1ccc(-c2nc(-c3ccncc3)c(-c3ccc4c(c3)CC/C4=N\\O)[nH]2)cc1", "inhibition", 8.42),
    ("CN1CCC(n2cnc(-c3ccc(F)cc3)c2-c2ccnc(Nc3ccccc3)n2)CC1", "inhibition", 4.83),
]

----------
target: Non-receptor tyrosine-protein kinase TYK2 (Homo sapiens) (UniProt P29597); details: at 1 µM;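 note: values are mean percent inhibition of TYK2 kinase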
Sequence (P29597 whole entry): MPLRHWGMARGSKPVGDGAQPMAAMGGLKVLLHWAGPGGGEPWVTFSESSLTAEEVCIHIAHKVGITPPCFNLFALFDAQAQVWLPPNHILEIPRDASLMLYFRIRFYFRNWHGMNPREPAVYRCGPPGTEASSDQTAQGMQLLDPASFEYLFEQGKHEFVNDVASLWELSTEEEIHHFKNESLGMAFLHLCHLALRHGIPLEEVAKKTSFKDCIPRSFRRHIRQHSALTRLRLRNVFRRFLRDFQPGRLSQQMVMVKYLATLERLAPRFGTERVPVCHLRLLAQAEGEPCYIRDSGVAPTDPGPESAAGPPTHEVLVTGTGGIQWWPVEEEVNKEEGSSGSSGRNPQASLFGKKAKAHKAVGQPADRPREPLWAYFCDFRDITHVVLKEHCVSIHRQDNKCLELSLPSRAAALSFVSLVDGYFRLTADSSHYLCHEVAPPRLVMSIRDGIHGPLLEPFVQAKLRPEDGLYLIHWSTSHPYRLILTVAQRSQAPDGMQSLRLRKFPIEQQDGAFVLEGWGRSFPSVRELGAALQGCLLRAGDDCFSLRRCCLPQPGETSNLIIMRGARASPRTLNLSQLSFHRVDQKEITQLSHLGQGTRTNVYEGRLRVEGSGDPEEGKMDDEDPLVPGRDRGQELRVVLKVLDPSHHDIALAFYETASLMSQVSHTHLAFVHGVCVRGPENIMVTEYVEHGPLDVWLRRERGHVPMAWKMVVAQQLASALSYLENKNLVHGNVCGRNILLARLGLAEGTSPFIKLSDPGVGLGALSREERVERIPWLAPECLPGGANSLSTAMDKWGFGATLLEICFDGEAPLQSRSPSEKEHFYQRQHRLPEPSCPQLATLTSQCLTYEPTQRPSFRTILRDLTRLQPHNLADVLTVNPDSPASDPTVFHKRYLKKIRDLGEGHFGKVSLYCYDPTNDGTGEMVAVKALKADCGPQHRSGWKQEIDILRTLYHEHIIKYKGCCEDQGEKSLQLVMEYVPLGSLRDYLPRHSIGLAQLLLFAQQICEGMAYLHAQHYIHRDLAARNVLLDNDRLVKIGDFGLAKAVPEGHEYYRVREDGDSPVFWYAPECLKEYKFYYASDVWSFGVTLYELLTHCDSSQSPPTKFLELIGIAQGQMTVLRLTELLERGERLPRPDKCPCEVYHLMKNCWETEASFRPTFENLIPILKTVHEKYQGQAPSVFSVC
A collection of molecules and their measured inhibition
TEST READOUT: inhibition (%)

# INPUT SMILES, TEST READOUT, ENDPOINT UNIT, VAL
data = [
    ("CC(=O)NCc1cccc(C#Cc2cncnc2Nc2ccc(OCc3cccc(F)c3)c(Cl)c2)c1", "inhibition", "%", 2.95),
    ("COC(=O)Nc1nc2ccc(Oc3ccc(NC(=O)Nc4cccc(Cl)c4)cc3)cc2[nH]1", "inhibition", "%", -0.96),
    ("COC(=O)Nc1nc2ccc(S(=O)(=O)c3ccc(NC(=O)Nc4cc(C(F)(F)F)ccc4F)cc3)cc2[nH]1", "inhibition", "%", 0.09),
    ("CNC(=O)c1cc(-c2ccc(F)cc2)cc(-c2ccc(S(=O)(=O)N3CCCC3)cc2)c1N", "inhibition", "%", -1.28),
    ("Fc1cccc(COc2ccc(Nc3ncnc4sc(-c5ccco5)cc34)cc2Cl)c1", "inhibition", "%", -1.9),
    ("CS(=O)(=O)CCNCc1coc(-c2ccc3ncnc(Nc4ccc(OCc5ccccc5)cc4)c3c2)c1", "inhibition", "%", 0.61),
    ("CCn1c(-c2nonc2N)nc2ccccc21", "inhibition", "%", -0.21),
    ("CCc1nn2ncccc2c1-c1ccnc(NC2CC2)n1", "inhibition", "%", 2.1),
    ("NS(=O)(=O)c1ccc(N/N=C2\\C(=O)Nc3ccc4ncccc4c32)cc1", "inhibition", "%", 33.5),
    ("Nc1nc(-c2cccc(Cl)c2)c(-c2ccc3ncccc3n2)s1", "inhibition", "%", -0.72),
]

----------
target: Death-associated protein kinase 1 (Homo sapiens); conditions: at 0.1 µM;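 note: reported figure is the mean inhibition of DAPK1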
TEST READOUT: inhibition (%)

# INPUT SMILES, TEST READOUT, VAL
rows = [
    ("Nc1nc(-c2cccc(Cl)c2)c(-c2ccc3ncccc3n2)s1", "inhibition", 12),
    ("CC(=O)Nc1cccc(C#Cc2cncnc2Nc2ccc(OCc3cccc(F)c3)c(Cl)c2)c1", "inhibition", -6.34),
    ("COc1ccc2[nH]c3c4[nH]c5ccc(OC)cc5c4c4c(c3c2c1)C(=O)NC4=O", "inhibition", 2),
    ("Fc1cccc(COc2ccc(Nc3ncnc4sc(-c5ccco5)cc34)cc2Cl)c1", "inhibition", 13.2),
    ("Cc1ccc2c(-c3ccnc(Nc4ccccc4)n3)c(-c3ccc(F)cc3)nn2n1", "inhibition", 3.42),
    ("CS(=O)(=O)CCNCc1coc(-c2ccc3ncnc(Nc4ccc(OCc5ccccc5)cc4)c3c2)c1", "inhibition", 2.7),
    ("Cc1ccc(O)cc1Nc1ccnc2cc(-c3ccccn3)ccc12", "inhibition", 3.99),
    ("CCn1cc(-c2ccnc3[nH]ccc23)c(-c2cccc(NC(=O)Nc3ccc(OCc4ccccc4)cc3)c2)n1", "inhibition", 1.61),
    ("CCOc1ccc2c(-c3ccnc(Nc4cccc(C(F)(F)F)c4)n3)cnn2n1", "inhibition", 3.1),
    ("CNC(=O)c1cccc(C#Cc2cncnc2Nc2ccc(OCc3cccc(F)c3)c(Cl)c2)c1", "inhibition", -1.4),
    ("COc1cc(/C=N/Nc2ncnc3[nH]ncc23)ccc1O", "inhibition", 4.22),
    ("COc1ccc(-c2oc3ncnc(N)c3c2-c2ccc(NC(=O)Nc3cc(C(F)(F)F)ccc3F)cc2)cc1", "inhibition", 5.33),
    ("CCn1c(-c2nonc2N)nc2c(C#CC(C)(C)O)nc(OC[C@H](N)c3ccccc3)cc21", "inhibition", 2.88),
    ("c1cc(-c2cnn3nc(N4CCOCC4)ccc23)nc(NC2CC2)n1", "inhibition", 3.51),
    ("N#Cc1c(NC(=O)c2ccc(F)cc2)sc2c1CCCC2", "inhibition", 0.39),
    ("COc1ccc(-c2nn3ncccc3c2-c2ccnc(Nc3ccc4c(c3)OCCO4)n2)cc1", "inhibition", 2.51),
    ("CCn1c(-c2nonc2N)nc2ccccc21", "inhibition", 4.46),
    ("CN1CCC(n2cnc(-c3ccc(F)cc3)c2-c2ccnc(Nc3ccccc3)n2)CC1", "inhibition", 2.63),
]
